- measured-on: human 11-β-HSD1 (Homo sapiens, UniProt P28845)
- Sequence (P28845 whole entry): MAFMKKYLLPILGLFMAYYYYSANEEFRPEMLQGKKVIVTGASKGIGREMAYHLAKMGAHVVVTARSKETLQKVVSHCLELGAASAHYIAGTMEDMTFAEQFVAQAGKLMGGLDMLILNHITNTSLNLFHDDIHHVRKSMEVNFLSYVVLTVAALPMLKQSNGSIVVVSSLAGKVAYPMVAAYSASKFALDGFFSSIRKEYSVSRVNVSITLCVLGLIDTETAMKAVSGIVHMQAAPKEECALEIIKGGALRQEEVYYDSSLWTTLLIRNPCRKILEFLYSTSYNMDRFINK
- protocol: Human H4IIE Assay: steroid conversion assay in H4IIe cells stably transfected with human 11-β-HSD1 cDNA, cortisol by ELISA
- setup-conditions: H4IIe cells transfected with human 11-β-HSD1; 200 nM cortisone, 120 minutes; read-out: HumH4IIe (IC50)
pIC50: −log10 of the molar value.
endpoint-label: pIC50

Examples with answers:
compound	reported
CC(=O)NC12CC3CC(C1)C(NC(=O)c1cnn(C(C)(C)C)c1Cl)C(C3)C2 (centres unmarked)	8.07
Cn1ncc(C(=O)NC2C3CC4CC2CC(NS(C)(=O)=O)(C4)C3)c1-n1cccn1 (centres unmarked)	8.22
CC(=O)NC12CC3CC(C1)C(NC(=O)c1cnn(C(C)(C)C)c1C(F)(F)F)C(C3)C2 (centres unmarked)	9.52
CC(=O)NC12CC3CC(C1)C(NC(=O)c1cnn(C(C)(C)C)c1-n1cccn1)C(C3)C2 (centres unmarked)	8.10
CC(C)(C)n1ncc(C(=O)N[C@H]2C3CC4CC2C[C@](O)(C4)C3)c1-n1cccn1	9.30
CC(C)(C)n1ncc(C(=O)N[C@H]2C3CC4CC2C[C@](O)(C4)C3)c1Cl	8.25

P: CC(C)(C)OCCn1ncc(C(=O)N[C@H]2C3CC4CC2C[C@](O)(C4)C3)c1C(F)(F)F
Q: COCCOCCn1ncc(C(=O)N[C@H]2C3CC4CC2C[C@](O)(C4)C3)c1-n1cccn1
Given the listed records, identify the one among P and Q with higher pIC50. Return value: the label identifying the chosen record.
P
